Experiment: Fraction unbound in rat plasma by equilibrium dialysis method
Assay type: ADME, cell-free
PROPERTY: fraction unbound
Keep the answer to the number alone.

Read off the recorded fraction unbound for `N#CC1(c2ccccn2)CCN(Cc2cc3c(c4ccccc24)CN([C@H]2CCCC[C@@H]2O)C3=O)CC1` 0.05

---

Test system: MDR1a
Assay: Effect on rat MDR1a-mediated drug transport assessed as efflux ratio of permeability from basolateral to apical side over apical to basolateral side
Format: ADME
Details: not told
Listing: efflux ratio of selected molecules
Keep the answer to the number alone.

Reference set, count: 4
CC1c2c(cc(CN3CCC(C#N)(c4ccccn4)CC3)c3ccccc23)C(=O)N1[C@H]1CCCC[C@@H]1O (mixture of isomers) : 4.1
N#CC1(c2ccccn2)CCN(Cc2cc3c(c4ccccc24)CN([C@H]2CCCC[C@@H]2O)C3=O)CC1 : 4.3
O=C1c2cc(CN3CCC(F)(c4ccccn4)CC3)c3ccccc3c2CN1[C@H]1CCCC[C@@H]1O : 2.7
Cc1cccc(C2(C#N)CCN(Cc3cc4c(c5ccccc35)CN([C@H]3CCCC[C@@H]3O)C4=O)CC2)n1 : 3.1

Now, please, on to the next molecule.
// fetch efflux ratio; item: `N#CC1(c2ccncc2)CCN(Cc2cc3c(c4ccccc24)CN([C@H]2CCCC[C@@H]2O)C3=O)CC1` ; system: MDR1a 49

---

Test system: Cerebrospinal fluid
Test: Drug uptake in cerebrospinal fluid in Sprague-Dawley rat at 10 mg/kg, po
Format: ADME, organism-based
Design: dose 10 mg/kg, route oral
Settings: in vivo, read-out: Drug uptake
PROPERTY: concentration (nM)
I only need the number, in nM, no unit after it.

N#CC1(c2ccccn2)CCN(Cc2cc3c(c4ccccc24)CN([C@H]2CCCC[C@@H]2O)C3=O)CC1 : 134
Cc1ccnc(C2(C#N)CCN(Cc3cc4c(c5ccccc35)CN([C@H]3CCCC[C@@H]3O)C4=O)CC2)c1 : 8.6

Now, please, on to the next compound.
Read off the recorded concentration for CC1c2c(cc(CN3CCC(C#N)(c4ccccn4)CC3)c3ccccc23)C(=O)N1[C@H]1CCCC[C@@H]1O (mixture of isomers) 4.7

---

Experiment: Volume of distribution at steady state in rat at 2 mg/kg, iv
Assay type: ADME, organism-based
Design: dose 2 mg/kg, route intravenous
Conditions: in vivo, read-out: Vdss
PROPERTY: Vd

Read off the recorded Vd for `N#CC1(c2ccccn2)CCN(Cc2cc3c(c4ccccc24)CN([C@H]2CCCC[C@@H]2O)C3=O)CC1` 2.8 L/kg

---

Test: Plasma protein binding in human by equilibrium dialysis method
Format: ADME, cell-free
Conditions: read-out: PPB (converted)
PROPERTY: fraction unbound

Reference set, count: 8
CC1c2c(cc(CN3CCC(C#N)(c4ccccn4)CC3)c3ccccc23)C(=O)N1[C@H]1CCCC[C@@H]1O (mixture of isomers) : 0.06
N#CC1(c2ccccn2)CCN(Cc2cc3c(c4ccccc24)CN([C@H]2CCCC[C@@H]2O)C3=O)CC1 : 0.08
Cc1cccc(C2(C#N)CCN(Cc3cc4c(c5ccccc35)CN([C@H]3CCCC[C@@H]3O)C4=O)CC2)n1 : 0.01
N#CC1(c2cnccn2)CCN(Cc2cc3c(c4ccccc24)CN([C@H]2CCCC[C@@H]2O)C3=O)CC1 : 0.086
Cc1ccnc(C2(C#N)CCN(Cc3cc4c(c5ccccc35)CN([C@H]3CCCC[C@@H]3O)C4=O)CC2)c1 : 0.006
N#CC1(c2ccccc2)CCN(Cc2cc3c(c4ccccc24)CN([C@H]2CCCC[C@@H]2O)C3=O)CC1 : 0.011
N#CC1(c2ccncn2)CCN(Cc2cc3c(c4ccccc24)CN([C@H]2CCCC[C@@H]2O)C3=O)CC1 : 0.09
O=C1c2cc(CN3CCC(F)(c4ccccn4)CC3)c3ccccc3c2CN1[C@H]1CCCC[C@@H]1O : 0.03

Now, please, on to the next compound.
Read off the recorded fraction unbound for `N#CC1(c2cccnn2)CCN(Cc2cc3c(c4ccccc24)CN([C@H]2CCCC[C@@H]2O)C3=O)CC1` 0.144

---

Assay: Half life in dog at 0.125 mg/kg, iv
Assay type: ADME, organism-based, Canis lupus familiaris
Design: dose 0.125 mg/kg, route intravenous
Conditions: in vivo
PROPERTY: half-life (h)
I only need the number, in h, no unit after it.

Read off the recorded half-life for `N#CC1(c2ccccn2)CCN(Cc2cc3c(c4ccccc24)CN([C@H]2CCCC[C@@H]2O)C3=O)CC1` 6.7

---

Test: Clearance in rat at 2 mg/kg, iv
Type: ADME, organism-based
Set-up: dose 2 mg/kg, route intravenous
Conditions: in vivo
PROPERTY: clearance (mL/min/kg)
I only need the number, in mL/min/kg, no unit after it.

Read off the recorded clearance for `N#CC1(c2ccccn2)CCN(Cc2cc3c(c4ccccc24)CN([C@H]2CCCC[C@@H]2O)C3=O)CC1` 4.1

---

Assay: Solubility of the compound at pH 7
Assay type: physicochemical
Conditions: buffer
PROPERTY: solubility (µM)
I only need the number, in µM, no unit after it.

Reference set, count: 2
CC1c2c(cc(CN3CCC(C#N)(c4ccccn4)CC3)c3ccccc23)C(=O)N1[C@H]1CCCC[C@@H]1O (mixture of isomers) : 19
Cc1ccnc(C2(C#N)CCN(Cc3cc4c(c5ccccc35)CN([C@H]3CCCC[C@@H]3O)C4=O)CC2)c1 : 3

Now, please, on to the next compound.
Read off the recorded solubility for `N#CC1(c2ccccn2)CCN(Cc2cc3c(c4ccccc24)CN([C@H]2CCCC[C@@H]2O)C3=O)CC1` 11

---

Listing: Papp of selected compounds
Assay: Apparent passive permeability of the compound
Assay type: physicochemical
Conditions: not told
Note: a bare number is incomplete; add the unit.

Reference set, count: 3
N#CC1(c2ccccn2)CCN(Cc2cc3c(c4ccccc24)CN([C@H]2CCCC[C@@H]2O)C3=O)CC1 : 34 ×10⁻⁶ cm/s
N#CC1(c2cnccn2)CCN(Cc2cc3c(c4ccccc24)CN([C@H]2CCCC[C@@H]2O)C3=O)CC1 : 31 ×10⁻⁶ cm/s
O=C1c2cc(CN3CCC(F)(c4ccccn4)CC3)c3ccccc3c2CN1[C@H]1CCCC[C@@H]1O : 34 ×10⁻⁶ cm/s

Now, please, on to the next compound.
Read off the recorded Papp for `N#CC1(c2ccncn2)CCN(Cc2cc3c(c4ccccc24)CN([C@H]2CCCC[C@@H]2O)C3=O)CC1` 29 ×10⁻⁶ cm/s

---

Molecular target: Muscarinic acetylcholine receptor M1 (Homo sapiens) (UniProt P11229)
Sequence (whole entry): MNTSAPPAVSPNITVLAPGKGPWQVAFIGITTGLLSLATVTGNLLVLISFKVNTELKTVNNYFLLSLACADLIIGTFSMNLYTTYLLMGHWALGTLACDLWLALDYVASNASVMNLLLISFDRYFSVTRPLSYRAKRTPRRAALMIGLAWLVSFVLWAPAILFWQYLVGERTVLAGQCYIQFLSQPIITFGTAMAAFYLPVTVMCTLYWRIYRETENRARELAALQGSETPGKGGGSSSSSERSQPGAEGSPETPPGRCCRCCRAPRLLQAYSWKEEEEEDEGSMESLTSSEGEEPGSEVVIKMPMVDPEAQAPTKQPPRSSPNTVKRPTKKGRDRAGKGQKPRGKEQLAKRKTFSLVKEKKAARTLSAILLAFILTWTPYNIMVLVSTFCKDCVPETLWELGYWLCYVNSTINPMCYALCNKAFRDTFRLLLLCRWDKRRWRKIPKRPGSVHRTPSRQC
Experiment: Positive allosteric modulation of human mAChR1 expressed in CHONFAT cells assessed as potention of acetylcholine-induced effect incubated for 4 mins prior to acetylcholine addition measured after 4 mins by FLIPR assay
Format: cell-based
// boundary case: IP equal to 300 nM maps to Criterion not met; strictly smaller maps to Criterion met

For this compound, is IP lower than 300 nM? `N#CC1(c2ccccn2)CCN(Cc2cc3c(c4ccccc24)CN(C2CCOCC2)C3=O)CC1` Criterion met

For this compound, is IP lower than 300 nM? N#CC1(c2ccccn2)CCN(Cc2cc3c(c4ccccc24)CN(C2CCCOC2)C3=O)CC1 (configuration not stated) Criterion not met

For this compound, is IP lower than 300 nM? `N#CC1(c2ccccn2)CCN(Cc2cc3c(c4ccccc24)CN([C@@H]2CCCC[C@H]2O)C3=O)CC1` Criterion not met

For this compound, is IP lower than 300 nM? `N#CC1(c2ccccc2)CCN(Cc2cc3c(c4ccccc24)CN([C@H]2CCCC[C@@H]2O)C3=O)CC1` Criterion met

For this compound, is IP lower than 300 nM? `N#CC1(c2cnccn2)CCN(Cc2cc3c(c4ccccc24)CN([C@H]2CCCC[C@@H]2O)C3=O)CC1` Criterion met

For this compound, is IP lower than 300 nM? `N#CC1(c2ccncc2)CCN(Cc2cc3c(c4ccccc24)CN([C@H]2CCCC[C@@H]2O)C3=O)CC1` Criterion met

For this compound, is IP lower than 300 nM? `N#CC1(c2cccnn2)CCN(Cc2cc3c(c4ccccc24)CN([C@H]2CCCC[C@@H]2O)C3=O)CC1` Criterion met

For this compound, is IP lower than 300 nM? `N#CC1(c2ccccn2)CCN(Cc2cc3c(c4ccccc24)CN(c2ccccc2F)C3=O)CC1` Criterion met

Cited source: ChEMBL document CHEMBL3297692
